System: KM mice
Assay: Test for drug-induced disappearance of righting reflex in mice
Assay type: in vivo
Details: 30 mg/kg, single rapid bolus via tail vein
READOUT_KIND: Latency (min)
Numeric answer only, unit min assumed.

Qu. In one line, give reported Latency of the entry COC(=O)CC[C@@H]1N=C(c2ccccc2Cl)c2cc(Cl)ccc2-n2c(S)nnc21 .
Ans. 0.58

Qu. In one line, give reported Latency of the entry COC(=O)CC[C@@H]1N=C(c2ccccc2Cl)c2cc(Cl)ccc2-n2c(SCOP(=O)(O)O)nnc21 .
Ans. 0.67

Qu. In one line, give reported Latency of the entry COC(=O)CC[C@@H]1N=C(c2ccccc2F)c2cc(Br)ccc2-n2c(SC)nnc21 .
Ans. 0.84

Qu. In one line, give reported Latency of the entry CCSc1nnc2n1-c1ccc(Br)cc1C(c1ccccc1Cl)=N[C@H]2CCC(=O)OC .
Ans. 0.35

Qu. In one line, give reported Latency of the entry COC(=O)CC[C@@H]1N=C(c2ccccc2Cl)c2cc([N+](=O)[O-])ccc2-n2c(SCN3CCOCC3)nnc21 .
Ans. 0.85

Qu. In one line, give reported Latency of the entry COC(=O)CC[C@@H]1N=C(c2ccccc2Cl)c2cc(Cl)ccc2-n2c(SC3CCN(C)CC3)nnc21 .
Ans. 0.58

Qu. In one line, give reported Latency of the entry COC(=O)CC[C@@H]1N=C(c2ccccc2F)c2cc(Br)ccc2-n2c(SCN3CCOCC3)nnc21 .
Ans. 1.01

Qu. In one line, give reported Latency of the entry C#CCSc1nnc2n1-c1ccc(Br)cc1C(c1ccccc1F)=N[C@H]2CCC(=O)OC .
Ans. 0.73

Qu. In one line, give reported Latency of the entry COC(=O)CC[C@@H]1N=C(c2ccccc2Cl)c2cc(Cl)ccc2-n2c(SCC(=O)N3CCN(C)CC3)nnc21 .
Ans. 0.56

Qu. In one line, give reported Latency of the entry CCSc1nnc2n1-c1ccc([N+](=O)[O-])cc1C(c1ccccc1F)=N[C@H]2CCC(=O)OC .
Ans. 0.23

Qu. In one line, give reported Latency of the entry COC(=O)CC[C@@H]1N=C(c2ccccc2F)c2cc(Br)ccc2-n2c(SCCN3CCCC3)nnc21 .
Ans. 0.29

The values you see were collected from patent US20230416258A1.
